Reference source: paper PMC10812921

# ASSAYED_SYSTEM: POU2 (OCT2 POU domain) (human, UniProt P09086 175-386)
# Sequence: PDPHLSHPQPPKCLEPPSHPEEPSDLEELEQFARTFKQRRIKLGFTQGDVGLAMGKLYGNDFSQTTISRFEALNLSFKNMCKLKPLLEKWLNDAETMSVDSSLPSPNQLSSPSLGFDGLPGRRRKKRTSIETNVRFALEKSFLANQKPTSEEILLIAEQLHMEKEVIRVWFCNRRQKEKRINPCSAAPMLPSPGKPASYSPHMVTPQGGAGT
# PROCEDURE_SUMMARY: EMSA-SELEX-seq; no BOB1; 20 mM Tris-HCl pH 7.6, 140 mM NaCl, 10% glycerol, 0.5 mM EDTA, 0.05% Triton X-100, 0.1 mg/mL BSA, 0.1 mg/mL poly(dI-dC), 5 mM DTT, room temperature, 20 min; high values mean tight binding
# SETTINGS: protein: recombinant; dsDNA, one strand shown
MEASURED_QUANTITY: binding signal

See these solved cases before continuing.
# SEQUENCE_RECORD, ASSAYED_SYSTEM, REPORTED_RESULT
records = [
    ("AATTGAAA", "POU2 (OCT2 POU domain) (human, UniProt P09086 175-386)", "0.131 % of ANNNNAAN 8-mers"),
    ("ACATTAAA", "POU2 (OCT2 POU domain) (human, UniProt P09086 175-386)", "0.125 % of ANNNNAAN 8-mers"),
    ("AAACAAAG", "POU2 (OCT2 POU domain) (human, UniProt P09086 175-386)", "0.0742 % of ANNNNAAN 8-mers"),
    ("ACCTCAAT", "POU2 (OCT2 POU domain) (human, UniProt P09086 175-386)", "0.0196 % of ANNNNAAN 8-mers"),
]

Q. Need binding signal of ACCTAAAG , thanks.
A. 0.0173 % of ANNNNAAN 8-mers

Q. Can you share its binding signal? I mean this sequence: AAGGCAAG
A. 0.038 % of ANNNNAAN 8-mers
